Here the recorded Population Normal (%) is given for each entry.
system: U2OS; assay: Multiplex assay against U2OS; assay type: toxicity, cell-based; details: human, 24 h, 1 µM, compound concentration 1 uM, replicate 1
# number only, unit % dropped from output

The examples below pair each entry with its known result.
[[record]]
molecule = "Cc1[nH]c(/C=C2\\C(=O)Nc3ccc(S(=O)(=O)N(C)c4cccc(Cl)c4)cc32)c(C)c1C(=O)N1CCN(C)CC1"
numeric_result = 90

[[record]]
molecule = "COc1ncc(-c2ccc3nccc(-c4ccnnc4)c3c2)cc1NS(=O)(=O)c1ccc(F)cc1F"
numeric_result = 90

[[record]]
molecule = "CN1CCN(c2ccc(OC(F)(F)F)c(Nc3ncc4c(n3)-c3c(c(C(N)=O)nn3CCO)CC4)c2)CC1"
numeric_result = 92

[[record]]
molecule = "Cl.N#Cc1ccc2[nH]cc(CCCCN3CCN(c4ccc5oc(C(N)=O)cc5c4)CC3)c2c1 [VILAZODONE HYDROCHLORIDE]"
numeric_result = 92


# return recorded Population Normal (%) for input `Cc1c(-c2ccc(O)cc2)n(Cc2ccc(OCCN3CCCCCC3)cc2)c2ccc(O)cc12` 88

---

Here the recorded Population Fragmented Nuclei (%) is given for each entry.
system: U2OS; experiment: Multiplex assay against U2OS; type: toxicity, cell-based; settings: human, 24 h, 10 µM, compound concentration 10 uM, replicate 1
# number only, unit % dropped from output

The examples below pair each entry with its known result.
[[record]]
compound = "CC[C@H](C)C(=O)O[C@H]1C[C@@H](C)C=C2C=C[C@H](C)[C@H](CC[C@@H]3C[C@@H](O)CC(=O)O3)[C@H]21"
numeric_result = 13

[[record]]
compound = "COc1cccc([C@@H](C)NCCCc2ccccc2Cl)c1.Cl [TECALCET HYDROCHLORIDE]"
numeric_result = 12

[[record]]
compound = "CC(C)NCC(O)COc1ccc(CCOCC2CC2)cc1.Cl (configuration not stated) [BETAXOLOL HYDROCHLORIDE]"
numeric_result = 13

[[record]]
compound = "COc1cc2nccc(Oc3ccc(NC(=O)Nc4cc(C)on4)c(Cl)c3)c2cc1OC.O"
numeric_result = 28

[[record]]
compound = "CNCc1ccc(-c2cc(-c3nc(-c4ccc(S(=O)(=O)C(C)C)cc4)cnc3N)on2)cc1"
numeric_result = 19


# return recorded Population Fragmented Nuclei (%) for input `Cc1nc(Nc2n[nH]c3c2CN(C(=O)N[C@H](CN(C)C)c2ccccc2)C3(C)C)c2sccc2n1` 25

# return recorded Population Fragmented Nuclei (%) for input `CC(C)(O)CNc1ncc(-c2ccnc(Nc3ccnc(Cl)c3)n2)c(CC2CC2)n1` 26

# return recorded Population Fragmented Nuclei (%) for input `CN1CCN(CCOc2cc(OC3CCOCC3)c3c(Nc4c(Cl)ccc5c4OCO5)ncnc3c2)CC1` 18

# return recorded Population Fragmented Nuclei (%) for input `Cc1c(-c2ccc(O)cc2)n(Cc2ccc(OCCN3CCCCCC3)cc2)c2ccc(O)cc12` 32

# return recorded Population Fragmented Nuclei (%) for input C=CC(=O)Nc1cc2c(Nc3ccc(F)c(Cl)c3)ncnc2cc1OCCCN1CCOCC1.Cl.Cl [CANERTINIB DIHYDROCHLORIDE] 5

# return recorded Population Fragmented Nuclei (%) for input CN(C)C(=O)N[C@H]1CC[C@H](CCN2CCN(c3cccc(Cl)c3Cl)CC2)CC1.Cl [CARIPRAZINE HYDROCHLORIDE] 13

# return recorded Population Fragmented Nuclei (%) for input `Cc1cc(C)cc(-c2cnc3cc(Cl)c(-c4cccc(O)c4)cc3c2OCCCN)c1` 33

# return recorded Population Fragmented Nuclei (%) for input O=C1NCN(c2ccccc2)C12CCN(CCCOc1ccc(F)cc1)CC2 [SPIRAMIDE] 18

# return recorded Population Fragmented Nuclei (%) for input C[C@@H](NCCCc1cccc(C(F)(F)F)c1)c1cccc2ccccc12.Cl [CINACALCET HYDROCHLORIDE] 14

# return recorded Population Fragmented Nuclei (%) for input `CNc1nc(NCc2ccc(NS(C)(=O)=O)cc2Cl)cc(-c2ccccn2)n1` 18

# return recorded Population Fragmented Nuclei (%) for input `Cn1cc(-c2[nH]c3cc(NC(=O)[C@H](N)C4CCCCC4)cc4c3c2C=NNC4=O)cn1` 17

# return recorded Population Fragmented Nuclei (%) for input `OC1(c2ccc(Cl)cc2)CCN(Cc2c[nH]c3ccccc23)CC1` 20

---

Here the recorded Growth Rate is given for each entry.
test system: Fibroblast; assay: Incucyte cell viability with human fibroblast; format: toxicity, cell-based; details: 18 h, 10 µM, compound concentration 10 uM, replicate number 1, timepoint 18 hours; further: filed as whole numbers so only -1 and 0 and 1 occur
Respond numerically, and do not add a unit to the figure.

The examples below pair each entry with its known result.
[[record]]
molecule = "C=CC(=O)Nc1cc2c(Nc3ccc(F)c(Cl)c3)ncnc2cc1OCCCN1CCOCC1.Cl.Cl [CANERTINIB DIHYDROCHLORIDE]"
recorded_metric = "Growth Rate"
numeric_result = 0

[[record]]
molecule = "CC(=O)OCC(=O)[C@@]1(O)CC[C@H]2[C@@H]3CCC4=CC(=O)CC[C@]4(C)[C@@]3(F)[C@@H](O)C[C@@]21C [FLUDROCORTISONE ACETATE]"
recorded_metric = "Growth Rate"
numeric_result = 1

[[record]]
molecule = "CN1CCC[C@@H]1CCO[C@](C)(c1ccccc1)c1ccc(Cl)cc1.O=C(O)/C=C/C(=O)O [CLEMASTINE FUMARATE]"
recorded_metric = "Growth Rate"
numeric_result = 0

[[record]]
molecule = "COc1cc2nccc(Oc3ccc(NC(=O)Nc4cc(C)on4)c(Cl)c3)c2cc1OC.O"
recorded_metric = "Growth Rate"
numeric_result = 0


# return recorded Growth Rate for input Cn1c(-c2csc(C3CCN(CC4=NC5N=CC=CC5N4)CC3)n2)nc2ccccc21 (configuration not stated) 1

# return recorded Growth Rate for input `CN([C@@H]1CCc2c(CC(=O)O)c3ccccc3n2C1)S(=O)(=O)c1ccc(F)cc1` 0

# return recorded Growth Rate for input `CCn1cc(-c2cccc(C(F)(F)F)c2)c2sc(C(=N)NC3CCS(=O)(=O)CC3)cc2c1=O` 0

---

tested on: Fibroblast; test: Multiplex assay against human fibroblast; format: toxicity, cell-based; settings: 24 h, 10 µM, compound concentration 10 uM, replicate 2
Under this convention, satisfied denotes Population Mitotic Cells (%) strictly below 50% and not satisfied denotes Population Mitotic Cells (%) at or above 50%.

[[record]]
compound = "Cl.N#Cc1ccc2[nH]cc(CCCCN3CCN(c4ccc5oc(C(N)=O)cc5c4)CC3)c2c1 [VILAZODONE HYDROCHLORIDE]"
class_label = "satisfied"

[[record]]
compound = "CN1CCCC(n2nc(Cc3ccc(Cl)cc3)c3ccccc3c2=O)CC1.Cl (stereo not drawn) [AZELASTINE HYDROCHLORIDE]"
class_label = "satisfied"

[[record]]
compound = "COc1cccc([C@@H](C)NCCCc2ccccc2Cl)c1.Cl [TECALCET HYDROCHLORIDE]"
class_label = "not satisfied"

[[record]]
compound = "C[C@@H](NCCCc1cccc(C(F)(F)F)c1)c1cccc2ccccc12.Cl [CINACALCET HYDROCHLORIDE]"
class_label = "satisfied"

[[record]]
compound = "CN1CCN(c2ccc(OC(F)(F)F)c(Nc3ncc4c(n3)-c3c(c(C(N)=O)nn3CCO)CC4)c2)CC1 [ONVANSERTIB]"
class_label = "not satisfied"


Problem: For the compound `Cc1csc2c(N[C@@H](C)CN3CCN(S(=O)(=O)c4ccc(Cl)c(Cl)c4)CC3)ncnc12` , is Population Mitotic Cells (%) under 50%? satisfied

Problem: For the compound `Cc1[nH]c(/C=C2\C(=O)Nc3ccc(S(=O)(=O)N(C)c4cccc(Cl)c4)cc32)c(C)c1C(=O)N1CCN(C)CC1` , is Population Mitotic Cells (%) under 50%? satisfied

Problem: For the compound Cc1c(-c2ccc(O)cc2)n(Cc2ccc(OCCN3CCCCCC3)cc2)c2ccc(O)cc12 [BAZEDOXIFENE] , is Population Mitotic Cells (%) under 50%? satisfied

Problem: For the compound O=C1NCN(c2ccccc2)C12CCN(CCCOc1ccc(F)cc1)CC2 [SPIRAMIDE] , is Population Mitotic Cells (%) under 50%? not satisfied

Problem: For the compound `COc1cc2nccc(Oc3ccc(NC(=O)Nc4cc(C)on4)c(Cl)c3)c2cc1OC.O` , is Population Mitotic Cells (%) under 50%? satisfied

Problem: For the compound CN1CCN(CCOc2cc(OC3CCOCC3)c3c(Nc4c(Cl)ccc5c4OCO5)ncnc3c2)CC1 [SARACATINIB] , is Population Mitotic Cells (%) under 50%? satisfied

Problem: For the compound c1cn2cc(-c3ccc4cn[nH]c4c3)nc(Nc3ccc(N4CCOCC4)cc3)c2n1 [ENTOSPLETINIB] , is Population Mitotic Cells (%) under 50%? satisfied

Problem: For the compound Cc1nc(-c2ccc(-c3ccc(C(=O)N4CCc5cc6c(cc54)C4(CCN(C)CC4)CO6)cc3)c(C)c2)no1 [SB-224289] , is Population Mitotic Cells (%) under 50%? satisfied
